test: Therapeutic index, ratio of MHC50 for chicken RBC to MIC99 for Mycobacterium tuberculosis H37Rv; conditions: chicken red blood cells, read-out: TI
assay endpoint: selectivity ratio

Examples from the recorded data:
[
  {
    "smiles input": "COC(=O)CC[C@@H](C)[C@H]1CC[C@H]2[C@@H]3[C@H](OC(=O)C[n+]4ccccc4)C[C@@H]4C[C@H](OC(=O)C[n+]5ccccc5)CC[C@]4(C)[C@H]3C[C@H](OC(=O)C[n+]3ccccc3)[C@]12C.[Cl-].[Cl-].[Cl-]",
    "selectivity ratio": "> 26"
  },
  {
    "smiles input": "COC(=O)CC[C@@H](C)[C@H]1CC[C@H]2[C@@H]3CC[C@@H]4C[C@H](OC(=O)CN)CC[C@]4(C)[C@H]3CC[C@]12C",
    "selectivity ratio": "< 20"
  }
]

Now for the compound whose selectivity ratio we want.
Memo: `COC(=O)CC[C@@H](C)[C@H]1CC[C@H]2[C@@H]3[C@H](OC(=O)C[N+]4(C)CCCCC4)C[C@@H]4C[C@H](OC(=O)C[N+]5(C)CCCCC5)CC[C@]4(C)[C@H]3CC[C@]12C` , reported selectivity ratio: > 80

====

# MIC99 per record follows
system: Escherichia coli; experiment: Antibacterial activity against Escherichia coli MTCC 443 after 12 hrs by microplate reader assay; assay type: functional; details: MTCC 443, 12 h
The reply should contain only the number, in µM.

Short answer for `COC(=O)CC[C@@H](C)[C@H]1CC[C@H]2[C@@H]3CC[C@@H]4C[C@H](OC(=O)C[n+]5ccccc5)CC[C@]4(C)[C@H]3C[C@H](OC(=O)C[n+]3ccccc3)[C@]12C` : MIC99 was 128

Quick note, MIC99 for `COC(=O)CC[C@@H](C)[C@H]1CC[C@H]2[C@@H]3[C@H](OC(=O)C[n+]4ccccc4)C[C@@H]4C[C@H](OC(=O)C[n+]5ccccc5)CC[C@]4(C)[C@H]3CC[C@]12C` landed at 128

// sample `COC(=O)CC[C@@H](C)[C@H]1CC[C@H]2[C@@H]3CC[C@@H]4C[C@H](OC(=O)CN)CC[C@]4(C)[C@H]3C[C@H](OC(=O)CN)[C@]12C` , its MIC99 was 16

Reported MIC99 of `COC(=O)CC[C@@H](C)[C@H]1CC[C@H]2[C@@H]3[C@H](OC(=O)C[N+]4(C)CCCCC4)C[C@@H]4C[C@H](OC(=O)C[N+]5(C)CCCCC5)CC[C@]4(C)[C@H]3CC[C@]12C` : 128

Reported MIC99 of `COC(=O)CC[C@@H](C)[C@H]1CC[C@H]2[C@@H]3[C@H](OC(=O)CN)C[C@@H]4C[C@H](OC(=O)CN)CC[C@]4(C)[C@H]3C[C@H](OC(=O)CN)[C@]12C.Cl.Cl.Cl` : 32

====

experiment: Therapeutic index, ratio of MHC50 for sheep RBC to MIC99 for Mycobacterium tuberculosis H37Rv; conditions: sheep red blood cells, read-out: TI
assay endpoint: selectivity ratio

Before answering, review these 5 worked examples.
[
  {
    "smiles input": "COC(=O)CC[C@@H](C)[C@H]1CC[C@H]2[C@@H]3[C@H](OC(=O)CN)C[C@@H]4C[C@H](OC(=O)CN)CC[C@]4(C)[C@H]3CC[C@]12C",
    "selectivity ratio": "< 20"
  },
  {
    "smiles input": "COC(=O)CC[C@@H](C)[C@H]1CC[C@H]2[C@@H]3CC[C@@H]4C[C@H](OC(=O)C[n+]5ccc(N(C)C)cc5)CC[C@]4(C)[C@H]3C[C@H](OC(=O)C[n+]3ccc(N(C)C)cc3)[C@]12C",
    "selectivity ratio": "> 213"
  },
  {
    "smiles input": "COC(=O)CC[C@@H](C)[C@H]1CC[C@H]2[C@@H]3CC[C@@H]4C[C@H](OC(=O)C[n+]5ccccc5)CC[C@]4(C)[C@H]3C[C@H](OC(=O)C[n+]3ccccc3)[C@]12C",
    "selectivity ratio": "> 80"
  },
  {
    "smiles input": "COC(=O)CC[C@@H](C)[C@H]1CC[C@H]2[C@@H]3[C@H](OC(=O)C[n+]4ccc(N(C)C)cc4)C[C@@H]4C[C@H](OC(=O)C[n+]5ccc(N(C)C)cc5)CC[C@]4(C)[C@H]3C[C@H](OC(=O)C[n+]3ccc(N(C)C)cc3)[C@]12C.[Cl-].[Cl-].[Cl-]",
    "selectivity ratio": "> 160"
  },
  {
    "smiles input": "COC(=O)CC[C@@H](C)[C@H]1CC[C@H]2[C@@H]3[C@H](OC(=O)C[n+]4ccc(N(C)C)cc4)C[C@@H]4C[C@H](OC(=O)C[n+]5ccc(N(C)C)cc5)CC[C@]4(C)[C@H]3CC[C@]12C",
    "selectivity ratio": "> 320"
  }
]

Entry under test: `COC(=O)CC[C@@H](C)[C@H]1CC[C@H]2[C@@H]3CC[C@@H]4C[C@H](OC(=O)C[N+]5(C)CCCCC5)CC[C@]4(C)[C@H]3C[C@H](OC(=O)C[N+]3(C)CCCCC3)[C@]12C` . Its selectivity ratio was > 160

// selectivity ratio value for `COC(=O)CC[C@@H](C)[C@H]1CC[C@H]2[C@@H]3CC[C@@H]4C[C@H](OC(=O)C[N+](C)(C)C)CC[C@]4(C)[C@H]3CC[C@]12C` : > 20

FYI, the data here is from ChEMBL document CHEMBL3621073.
